Assay: Cytotoxicity against human CEM cells
Type: cell-based
Conditions: CCRF-CEM (CEM) cells
Measurement Kind: CC50 (µM)
Write the answer as a number in µM, unit excluded.

(Q) Entry Cc1cc(C)cc(OCCCCCn2ccc(=O)[nH]c2=O)c1 : reported CC50 = ?
(A) 154

====

System: Respiratory syncytial virus
Assay: Antiviral activity against Respiratory syncytial virus Long
Type: functional, organism-based
Activity calls are given as the source filed them. No cut-off for these calls is given here.
Measurement Kind: Activity

Smi | Value Observed
Cc1ccccc1OCCCCCn1ccc(=O)[nH]c1=O | inactive
O=c1ccn(CCCCCOc2ccc(Cl)cc2)c(=O)[nH]1 | inactive
Nc1ccc(OCCCCCn2ccc(=O)[nH]c2=O)cc1 | inactive
CC(C)c1ccc(OCCCCCn2ccc(=O)[nH]c2=O)cc1 | inactive

The record that follows has no Activity shown yet.
(Q) Consider the compound CCCOC(=O)c1ccc(OCCCCCn2ccc(=O)[nH]c2=O)cc1 and give its measured Activity.
(A) inactive

====

System: HEL
Test: Cytotoxicity against HEL
Type: cell-based
Conditions: human
Measurement Kind: CC50

(Q) // returns reported CC50 for input O=c1ccn(CCCCCCCCOc2ccc(Br)cc2)c(=O)[nH]1
(A) > 100 µM

(Q) Recorded CC50 for Nc1ccc(OCCCCCn2ccc(=O)[nH]c2=O)cc1 , please?
(A) > 100 µM

(Q) What measured CC50 goes with O=c1[nH]c(=O)n(CCCCCOc2ccc(Br)cc2)cc1I ?
(A) > 100 µM

(Q) So what does the record say about CC50 for O=c1ccn(CCCCCOc2ccc(Br)cc2)c(=O)[nH]1 ?
(A) > 100 µM

(Q) Recorded CC50 for Cc1ccc(OCCCCCn2ccc(=O)[nH]c2=O)cc1 , please?
(A) > 100 µM

(Q) I am curious: what CC50 value has been reported for Nc1nc(O)c2ncn(COC(CO)CO)c2n1 ?
(A) 200 µM

====

So I've got a bunch of molecules here, and I need their MCC values.
Assay: Cytotoxicity against HEL assessed as minimum cytotoxic concentration required to cause microscopically detectable alteration in cell morphology
Format: cell-based
Settings: human, HEL cells
Just the number in µM, nothing appended.

(Q) What does the data say about its MCC? Entry: Nc1nc(O)c2ncn(COC(CO)CO)c2n1
(A) 394

(Q) Look at this molecule and give its reported MCC. CC(C)c1ccc(OCCCCCn2ccc(=O)[nH]c2=O)cc1
(A) 100

(Q) Need MCC of O=c1ccn(CCCCCCOc2ccc(Br)cc2)c(=O)[nH]1 , thanks.
(A) 20

(Q) For the molecule O=c1ccn(CCCCCOc2ccc([N+](=O)[O-])cc2)c(=O)[nH]1 , what MCC is on record?
(A) 20

(Q) # lookup: MCC of Cc1cn(CCCCCOc2ccc(Br)cc2)c(=O)[nH]c1=O
(A) 100

(Q) Report MCC for Nc1ccn(C[C@@H](CO)OCP(=O)(O)O)c(=O)n1 please.
(A) 317

(Q) # lookup: MCC of O=c1ccn(CCCCCOc2ccc(Br)cc2)c(=O)[nH]1
(A) 100

(Q) Please give the measured MCC for this molecule: O=c1ccn(CCCCOc2ccc(Br)cc2)c(=O)[nH]1
(A) 100

(Q) MCC for Cc1ccc(OCCCCCn2ccc(=O)[nH]c2=O)cc1 ?
(A) 100

(Q) Could you share which MCC value was measured for N#Cc1ccc(OCCCCCn2ccc(=O)[nH]c2=O)cc1 ?
(A) 100
